Target: UniProtKB O15146
Sequence (O15146 whole entry, looked up): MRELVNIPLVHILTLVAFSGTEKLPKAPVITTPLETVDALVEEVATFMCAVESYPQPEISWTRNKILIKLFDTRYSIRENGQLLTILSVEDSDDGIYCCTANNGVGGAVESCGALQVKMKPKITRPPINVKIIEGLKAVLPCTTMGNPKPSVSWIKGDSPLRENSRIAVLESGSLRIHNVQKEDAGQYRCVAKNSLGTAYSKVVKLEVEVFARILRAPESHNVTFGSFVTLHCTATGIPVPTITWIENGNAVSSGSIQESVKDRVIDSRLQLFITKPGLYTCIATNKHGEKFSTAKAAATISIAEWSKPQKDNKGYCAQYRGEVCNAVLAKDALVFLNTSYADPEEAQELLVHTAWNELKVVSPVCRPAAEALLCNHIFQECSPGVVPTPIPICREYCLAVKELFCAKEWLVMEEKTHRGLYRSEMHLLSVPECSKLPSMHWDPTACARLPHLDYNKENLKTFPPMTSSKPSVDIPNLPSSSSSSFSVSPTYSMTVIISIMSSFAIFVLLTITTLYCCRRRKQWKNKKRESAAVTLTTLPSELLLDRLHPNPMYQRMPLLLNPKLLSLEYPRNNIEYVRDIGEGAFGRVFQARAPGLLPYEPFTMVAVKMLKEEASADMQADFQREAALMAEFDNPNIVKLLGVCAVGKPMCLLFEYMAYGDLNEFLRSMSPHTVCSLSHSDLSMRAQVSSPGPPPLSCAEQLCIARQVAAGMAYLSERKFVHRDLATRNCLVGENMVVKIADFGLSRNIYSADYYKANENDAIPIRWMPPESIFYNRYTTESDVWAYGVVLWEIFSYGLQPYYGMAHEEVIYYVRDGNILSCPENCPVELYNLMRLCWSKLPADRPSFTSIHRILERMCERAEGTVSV
Assay: KINOMEscan competition binding
Conditions: compound 10.0 µM
Form field: kinase still bound, per cent of control (one value per entry).
Output spec: scalar in %, unitless text.

> print(dat)
                          chemicalstructure  unitssymbol  testresult
1  Cc1ccc(NC(=O)c2cccc(C(C)(C)C#N)c2)cc1Nc1ccc2ncn(C)c(=O)c2c1            %          92
2  C=CC(=O)Nc1cccc(Oc2nc(Nc3ccc(N4CCN(C)CC4)cc3OC)ncc2Cl)c1            %         100
3  COc1cc(N2CCN(C)CC2)ccc1Nc1nc(N)c(C(=O)c2c(Cl)cccc2Cl)s1            %          90
4  O=C(NC1CC1)c1cccc(-c2ccc3c(NC(=O)C4CC4)n[nH]c3c2)c1            %          91
5    N#Cc1c(NC(=O)c2cccc3ccccc23)sc2c1CCCC2            %          97

Value of kinase still bound, per cent of control reported for the compound C[C@@H](Oc1cc(-n2cnc3ccc(CN4CCN(C)CC4)cc32)sc1C(N)=O)c1ccccc1C(F)(F)F is 100

Value of kinase still bound, per cent of control reported for the compound O=C(O)c1ccc(Nc2ncc3c(n2)-c2ccc(Cl)cc2C(c2c(F)cccc2F)=NC3)cc1 is 93

Value of kinase still bound, per cent of control reported for the compound O=C1Nc2ccc(I)cc2/C1=C/c1cc(Br)c(O)c(Br)c1 is 74

Value of kinase still bound, per cent of control reported for the compound CC[C@@H]1C(=O)N(C)c2cnc(Nc3ccc(C(=O)NC4CCN(C)CC4)cc3OC)nc2N1C1CCCC1 is 100

Value of kinase still bound, per cent of control reported for the compound CN(C)C/C=C/C(=O)Nc1cccc(Nc2ncc3c(n2)N(C)c2ccccc2C(=O)N3C)c1 is 100

====

Target: PRKAA1 (human) (UniProt Q13131)
Sequence (Q13131 whole entry, looked up): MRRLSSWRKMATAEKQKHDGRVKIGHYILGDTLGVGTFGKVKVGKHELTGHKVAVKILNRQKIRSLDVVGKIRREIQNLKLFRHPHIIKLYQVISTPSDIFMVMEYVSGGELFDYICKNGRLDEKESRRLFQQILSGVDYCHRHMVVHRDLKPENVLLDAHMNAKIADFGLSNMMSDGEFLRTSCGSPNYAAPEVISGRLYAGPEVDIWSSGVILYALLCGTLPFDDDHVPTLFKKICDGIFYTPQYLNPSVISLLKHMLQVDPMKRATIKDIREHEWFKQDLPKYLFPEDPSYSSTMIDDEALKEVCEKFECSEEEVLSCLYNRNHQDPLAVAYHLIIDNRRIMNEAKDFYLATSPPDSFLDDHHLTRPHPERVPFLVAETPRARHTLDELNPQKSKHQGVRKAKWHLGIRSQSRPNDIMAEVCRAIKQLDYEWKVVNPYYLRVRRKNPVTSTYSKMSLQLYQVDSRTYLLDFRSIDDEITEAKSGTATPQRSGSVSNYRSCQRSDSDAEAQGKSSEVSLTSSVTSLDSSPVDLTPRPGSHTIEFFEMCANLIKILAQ
Assay: KINOMEscan competition binding
Details: compound 10.0 µM
readoutLabel: kinase still bound, per cent of control (%)
Output spec: scalar in %, unitless text.

Look over these answered cases.
> print(dat)
                                   compound                             readoutlabel  testresult
1  O=C(O)c1ccc(Nc2ncc3c(n2)-c2ccc(Cl)cc2C(c2c(F)cccc2F)=NC3)cc1  kinase still bound, per cent of control          38
2  CCN1CCN(Cc2ccc(Nc3ncc4c(n3)N(C)c3ccccc3C(=O)N4C)cc2C(F)(F)F)CC1  kinase still bound, per cent of control         2.4
3  CC[C@@H]1C(=O)N(C)c2cnc(Nc3ccc(C(=O)NC4CCN(C)CC4)cc3OC)nc2N1C1CCCC1  kinase still bound, per cent of control         100
4  CCCS(=O)(=O)Nc1ccc(F)c(C(=O)c2c[nH]c3ncc(-c4ccc(Cl)cc4)cc23)c1F  kinase still bound, per cent of control          89
5  C=CC(=O)Nc1cccc(Nc2nc(N[C@H]3CC[C@H](N(C)C)CC3)nc3c2ncn3C(C)C)c1  kinase still bound, per cent of control          78

Value of kinase still bound, per cent of control reported for the compound Nc1ccc(-c2ccc3ncc4ccc(=O)n(-c5cccc(C(F)(F)F)c5)c4c3c2)cn1 is 100

Value of kinase still bound, per cent of control reported for the compound Cc1cc([C@@H](C)Nc2ccccc2C(=O)O)c2nc(N3CCOCC3)cc(=O)n2c1 is 100

Value of kinase still bound, per cent of control reported for the compound CCC(=O)N1CCN(c2ccc(-n3c(=O)ccc4cnc5ccc(-c6cnc7ccccc7c6)cc5c43)cc2C(F)(F)F)CC1 is 91

Value of kinase still bound, per cent of control reported for the compound CN(C)C/C=C/C(=O)Nc1cccc(Nc2ncc3c(n2)N(C)c2ccccc2C(=O)N3C)c1 is 0.45

Value of kinase still bound, per cent of control reported for the compound COc1cc(N2CCN(C)CC2)ccc1Nc1nc(N)c(C(=O)c2c(Cl)cccc2Cl)s1 is 81

Value of kinase still bound, per cent of control reported for the compound Cc1ccc(NC(=O)c2cccc(C(C)(C)C#N)c2)cc1Nc1ccc2ncn(C)c(=O)c2c1 is 73

Value of kinase still bound, per cent of control reported for the compound Cc1ccc(C(=O)Nc2cccc(C(F)(F)F)c2)cc1Nc1cncc(C(N)=O)c1 is 100

Value of kinase still bound, per cent of control reported for the compound C=CC(=O)Nc1cc(NC(=O)c2ccc(C)c(NC(=O)c3ccno3)c2)cc(C(F)(F)F)c1 is 100

Value of kinase still bound, per cent of control reported for the compound COc1cc(C(=O)NC2CCN(C)CC2)ccc1Nc1ncc2c(n1)N(C1CCCC1)C(C)CC(=O)N2C (stereo not given) is 100

Value of kinase still bound, per cent of control reported for the compound CCOc1cc2ncc(C#N)c(Nc3ccc(OCc4ccccn4)c(Cl)c3)c2cc1NC(=O)/C=C/CN(C)C is 79
